Cited source for all entries: ChEMBL document CHEMBL1145507

The following compounds each carry a recorded pIC50 for Enoyl-acyl-carrier protein reductase (Plasmodium falciparum, UniProt Q965D5).
pIC50: −log10 of the molar value.
READOUT: pIC50

smiles_record=CCCc1ccc(Oc2ccc(Cl)cc2Cl)c(O)c1 censoring_qualifier== recorded_value=6.68
smiles_record=Cc1ccc(Oc2ccc(Cl)cc2Cl)c(O)c1 censoring_qualifier== recorded_value=6.70
smiles_record=CCc1ccc(Oc2ccc(Cl)cc2Cl)c(O)c1 censoring_qualifier== recorded_value=6.96
smiles_record=Oc1cc(-c2ccccc2)ccc1Oc1ccc(Cl)cc1Cl censoring_qualifier== recorded_value=6.85
smiles_record=Cc1ccc(-c2ccc(Oc3ccc(Cl)cc3Cl)c(O)c2)cc1 censoring_qualifier== recorded_value=6.72
smiles_record=Cc1cccc(-c2ccc(Oc3ccc(Cl)cc3Cl)c(O)c2)c1 censoring_qualifier== recorded_value=6.64
smiles_record=O=C(O)c1ccc(Oc2ccc(Cl)cc2Cl)c(O)c1 censoring_qualifier=< recorded_value=4.00
smiles_record=CC(C)CCc1ccc(Oc2ccc(Cl)cc2Cl)c(O)c1 censoring_qualifier== recorded_value=6.92
smiles_record=Oc1cc(CCCc2ccccc2)ccc1Oc1ccc(Cl)cc1Cl censoring_qualifier== recorded_value=6.36
smiles_record=Oc1cc(Cc2ccccc2)ccc1Oc1ccc(Cl)cc1Cl censoring_qualifier== recorded_value=7.15
smiles_record=Oc1cc(-c2ccc(F)cc2)ccc1Oc1ccc(Cl)cc1Cl censoring_qualifier== recorded_value=7.42
smiles_record=Cc1ccccc1-c1ccc(Oc2ccc(C#N)cc2Cl)c(O)c1 censoring_qualifier== recorded_value=6.39
smiles_record=N#Cc1ccc(Oc2ccc(-c3ccncc3)cc2O)c(Cl)c1 censoring_qualifier== recorded_value=5.55
smiles_record=NC(=O)c1ccc(Oc2ccc(Cl)cc2Cl)c(O)c1 censoring_qualifier== recorded_value=4.68

###

System: Plasmodium falciparum
Experiment: Antimalarial activity against Plasmodium falciparum 3D7 by reduced [3H]hypoxanthine uptake
Type: functional, organism-based
pEC50: −log10 of the molar value.
READOUT: pEC50

compound=Oc1cc(CCCc2ccccc2)ccc1Oc1ccc(Cl)cc1Cl readout=pEC50 censoring_qualifier== recorded_value=5.19
compound="CCC(C)Cc1ccc(Oc2ccc(Cl)cc2Cl)c(O)c1 (centres undefined)" readout=pEC50 censoring_qualifier== recorded_value=5.70
compound=Cc1ccc(Oc2ccc(Cl)cc2Cl)c(O)c1 readout=pEC50 censoring_qualifier== recorded_value=5.00
compound=Oc1cc(Cc2cccnc2)ccc1Oc1ccc(Cl)cc1Cl readout=pEC50 censoring_qualifier== recorded_value=5.16
compound=O=C(O)c1ccc(Oc2ccc(Cl)cc2Cl)c(O)c1 readout=pEC50 censoring_qualifier=< recorded_value=4.00
compound=CCCc1ccc(Oc2ccc(Cl)cc2Cl)c(O)c1 readout=pEC50 censoring_qualifier== recorded_value=5.60
compound=CC(C)CCc1ccc(Oc2ccc(Cl)cc2Cl)c(O)c1 readout=pEC50 censoring_qualifier== recorded_value=5.13
compound=Oc1cc(-c2ccc(F)cc2)ccc1Oc1ccc(Cl)cc1Cl readout=pEC50 censoring_qualifier== recorded_value=5.68
compound=Oc1cc(-c2nn[nH]n2)ccc1Oc1ccc(Cl)cc1Cl readout=pEC50 censoring_qualifier=< recorded_value=4.00
